Assay: Ratio of drug concentration in liver to plasma of Sprague-Dawley rat at 5 mg/kg, po measured for 24 hrs by LC-MS/MS analysis
Type: ADME, organism-based
Conditions: liver and plasma
readout-type: Kp at 24 h
Answers are plain numbers.

Data request: Which Kp at 24 h is listed for CC(C)(C)[C@@H]1Cc2c(nc3c(C(F)(F)F)cc(C4CC4)cn23)-c2[nH]c(=O)c(C(=O)O)cc21 ?
Data returned: 920

----------
Assay: Selectivity ratio of drug concentration in liver in CD-1 mouse at 0.2 mg/kg, po measured for 12 hrs to EC90 for antiviral activity against HBV infected in human HepG2.2.15 cells assessed as reduction in HBsAg level
Assay type: ADME, organism-based
Details: in vivo
Given measured Ratio, output yes if it is greater than or equal to 20 and no if not.

{"smiles-entry": "Cn1c2c(cc(C(=O)O)c1=O)[C@H](C(C)(C)C)Cc1c-2nc2c(C(F)(F)F)cc(Cl)cn12", "class-assignment": "yes"}
{"smiles-entry": "COc1cc(OC(F)F)c2nc3c(n2c1)C[C@@H](C(C)(C)C)c1cc(C(=O)O)c(=O)[nH]c1-3", "class-assignment": "yes"}
{"smiles-entry": "CC(C)(C)[C@@H]1Cc2c(nc3c(C(F)(F)F)cc(C4CC4)cn23)-c2[nH]c(=O)c(C(=O)O)cc21", "class-assignment": "yes"}
{"smiles-entry": "COc1ccn2c3c(nc2c1OC(F)F)-c1[nH]c(=O)c(C(=O)O)cc1[C@H](C(C)(C)C)C3", "class-assignment": "no"}

Data request: Ratio >= 20 for CC(C)(C)[C@@H]1Cc2c(nc3c(OC(F)F)cc(F)cn23)-c2[nH]c(=O)c(C(=O)O)cc21 ?
Data returned: yes

----------
Target: UniProtKB P10635
Sequence (P10635 whole entry): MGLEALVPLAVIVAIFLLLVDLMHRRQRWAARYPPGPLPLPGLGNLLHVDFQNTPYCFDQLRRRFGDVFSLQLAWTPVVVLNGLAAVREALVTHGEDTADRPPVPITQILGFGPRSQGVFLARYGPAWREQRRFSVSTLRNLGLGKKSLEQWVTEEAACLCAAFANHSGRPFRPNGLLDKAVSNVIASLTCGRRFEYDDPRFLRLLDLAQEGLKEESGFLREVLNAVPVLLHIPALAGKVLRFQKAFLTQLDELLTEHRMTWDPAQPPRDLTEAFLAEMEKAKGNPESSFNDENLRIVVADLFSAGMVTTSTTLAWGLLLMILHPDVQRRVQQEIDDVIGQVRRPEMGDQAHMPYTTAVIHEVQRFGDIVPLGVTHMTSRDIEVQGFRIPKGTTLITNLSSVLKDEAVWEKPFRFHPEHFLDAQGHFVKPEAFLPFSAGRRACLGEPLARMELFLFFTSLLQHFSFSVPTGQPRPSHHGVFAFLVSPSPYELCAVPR
Assay: Inhibition of CYP2D6 in human liver microsomes using dextromethorphan as substrate preincubated for 30 min followed by NADPH addition measured after 12 mins by LC-MS/MS analysis
Assay type: ADME, Microsome
Details: human, liver microsomes, probe dextromethorphan
readout-type: IC50 at 12 min

Data request: Which IC50 at 12 min is listed for COCCCOc1cc2c(nc1OC)-c1cc(=O)c(C(=O)O)cn1[C@H](C(C)C)C2 ?
Data returned: > 25 µM

----------
Test: Selectivity ratio of drug concentration in liver in CD-1 mouse at 10 mg/kg, po measured for 12 hrs to EC90 for antiviral activity against HBV infected in human HepG2.2.15 cells assessed as reduction in HBsAg level
Format: ADME, organism-based
Settings: in vivo
Kindly supply the reported Ratio values for the records listed here.
Numbers only.

Some compounds with recorded Ratio:
{"smiles-entry": "CC(C)(C)[C@@H]1Cc2c(nc3c(OC(F)F)cc(F)cn23)-c2[nH]c(=O)c(C(=O)O)cc21", "Ratio": 1080}
{"smiles-entry": "Cn1c2c(cc(C(=O)O)c1=O)[C@H](C(C)(C)C)Cc1c-2nc2c(C(F)(F)F)cc(Cl)cn12", "Ratio": 2002}
{"smiles-entry": "COc1cccn2c3c(nc12)-c1[nH]c(=O)c(C(=O)O)cc1[C@H](C(C)(C)C)C3", "Ratio": 3}
{"smiles-entry": "COc1ccn2c3c(nc2c1OC(F)F)-c1[nH]c(=O)c(C(=O)O)cc1[C@H](C(C)(C)C)C3", "Ratio": 69}

Now look at this entry.
Data request: Which Ratio is listed for CC(C)(C)[C@@H]1Cc2c(nc3c(OC(F)F)cccn23)-c2[nH]c(=O)c(C(=O)O)cc21 ?
Data returned: 108

----------
Assay: Cytotoxicity in human HepG2.2.15 cells by Cell Titer-Glo assay
Format: toxicity, cell-based, HepG2 2.2.15
readout-type: CC50

Some compounds with recorded CC50:
{"compound": "Cn1c2c(cc(C(=O)O)c1=O)[C@H](C(C)(C)C)Cc1c-2nc2c(C(F)(F)F)cc(Cl)cn12", "CC50": "15 µM"}
{"compound": "CC(C)(C)[C@@H]1Cc2c(nc3c(OC(F)F)cccn23)-c2[nH]c(=O)c(C(=O)O)cc21", "CC50": "> 50 µM"}
{"compound": "CC(C)(C)[C@@H]1Cc2c(nc3c(C(F)(F)F)cccn23)-c2[nH]c(=O)c(C(=O)O)cc21", "CC50": "> 50 µM"}
{"compound": "Cc1cc(C(F)(F)F)c2nc3c(n2c1)CC(C(C)(C)C)c1cc(C(=O)O)c(=O)[nH]c1-3 (stereo not drawn)", "CC50": "47 µM"}
{"compound": "CC(C)(C)C1Cc2c(nc3c(C(F)(F)F)cc(Cl)cn23)-c2c1cc(C(=O)O)c(=O)n2C1CC1 (stereo not drawn)", "CC50": "16 µM"}
{"compound": "COCCCOc1cc2c(nc1OC)-c1cc(=O)c(C(=O)O)cn1[C@H](C(C)C)C2", "CC50": "> 50 µM"}
{"compound": "CC(C)(C)C1Cc2c(nc3c(C(F)(F)F)cc(F)cn23)-c2[nH]c(=O)c(C(=O)O)cc21 (stereo not drawn)", "CC50": "> 50 µM"}

Now look at this entry.
Data request: Which CC50 is listed for CC(C)(C)[C@@H]1Cc2c(nc3c(OC(F)F)cc(OC(F)F)cn23)-c2[nH]c(=O)c(C(=O)O)cc21 ?
Data returned: > 50 µM

----------
Kindly supply the reported concentration at 24 h values for the records listed here.
Test: Drug concentration in CD-1 mouse lung at 10 mg/kg, po measured for 24 hrs by LC-MS/MS analysis
Format: ADME, organism-based
Details: read-out: Ct
Answers are plain numbers, in ng/g.

{"smiles-entry": "COc1cc(OC(F)F)c2nc3c(n2c1)C[C@@H](C(C)(C)C)c1cc(C(=O)O)c(=O)[nH]c1-3", "unit-symbol": "ng/g", "concentration at 24 h": 25}

Now look at this entry.
Data request: Which concentration at 24 h is listed for CC(C)(C)[C@@H]1Cc2c(nc3c(C(F)(F)F)cc(C4CC4)cn23)-c2[nH]c(=O)c(C(=O)O)cc21 ?
Data returned: 35

----------
Assay: Drug concentration in CD-1 mouse kidney at 10 mg/kg, po measured for 24 hrs by LC-MS/MS analysis
Format: ADME, organism-based
Settings: read-out: Ct
readout-type: concentration at 24 h
Note to self: number, then unit, no commentary.

For each of the items listed, what is its concentration at 24 h?
1. CC(C)(C)[C@@H]1Cc2c(nc3c(C(F)(F)F)cc(C4CC4)cn23)-c2[nH]c(=O)c(C(=O)O)cc21
2. COc1cc(OC(F)F)c2nc3c(n2c1)C[C@@H](C(C)(C)C)c1cc(C(=O)O)c(=O)[nH]c1-3

Data returned:
1. 23 ng/g
2. 71 ng/g

----------
Assay: Ratio of drug concentration in liver to plasma of Beagle dog at 10 mg/kg, po measured for 12 hrs by LC-MS/MS analysis
Format: ADME, organism-based, Canis lupus familiaris
Conditions: liver (relative to plasma)
readout-type: Kp at 12 h
One number for each entry.

{"smiles-entry": "COCCCOc1cc2c(nc1OC)-c1cc(=O)c(C(=O)O)cn1[C@H](C(C)C)C2", "Kp at 12 h": 2.9}
{"smiles-entry": "CC(C)(C)[C@@H]1Cc2c(nc3c(C(F)(F)F)cc(C4CC4)cn23)-c2[nH]c(=O)c(C(=O)O)cc21", "Kp at 12 h": 2.5}

Now look at this entry.
Data request: Which Kp at 12 h is listed for COc1cc(OC(F)F)c2nc3c(n2c1)C[C@@H](C(C)(C)C)c1cc(C(=O)O)c(=O)[nH]c1-3 ?
Data returned: 11

----------
Experiment: Plasma protein binding in dog assessed as unbound fraction at 2 uM incubated for 6 hrs by equilibrium dialysis
Format: ADME, cell-free, Canis lupus familiaris
Kindly supply the reported fraction unbound at 6 h, 2 µM values for the records listed here.
Answers are plain numbers.

Some molecules with recorded fraction unbound at 6 h, 2 µM:
{"smiles-entry": "COc1cc(OC(F)F)c2nc3c(n2c1)C[C@@H](C(C)(C)C)c1cc(C(=O)O)c(=O)[nH]c1-3", "reported-result": 0.05}
{"smiles-entry": "CC(C)(C)[C@@H]1Cc2c(nc3c(C(F)(F)F)cc(C4CC4)cn23)-c2[nH]c(=O)c(C(=O)O)cc21", "reported-result": 0.02}

Now look at this entry.
Data request: Which fraction unbound at 6 h, 2 µM is listed for COCCCOc1cc2c(nc1OC)-c1cc(=O)c(C(=O)O)cn1[C@H](C(C)C)C2 ?
Data returned: 0.38

----------
Biological target: Cytochrome P450 2C9 (Homo sapiens, UniProt P11712)
Sequence (P11712 whole entry): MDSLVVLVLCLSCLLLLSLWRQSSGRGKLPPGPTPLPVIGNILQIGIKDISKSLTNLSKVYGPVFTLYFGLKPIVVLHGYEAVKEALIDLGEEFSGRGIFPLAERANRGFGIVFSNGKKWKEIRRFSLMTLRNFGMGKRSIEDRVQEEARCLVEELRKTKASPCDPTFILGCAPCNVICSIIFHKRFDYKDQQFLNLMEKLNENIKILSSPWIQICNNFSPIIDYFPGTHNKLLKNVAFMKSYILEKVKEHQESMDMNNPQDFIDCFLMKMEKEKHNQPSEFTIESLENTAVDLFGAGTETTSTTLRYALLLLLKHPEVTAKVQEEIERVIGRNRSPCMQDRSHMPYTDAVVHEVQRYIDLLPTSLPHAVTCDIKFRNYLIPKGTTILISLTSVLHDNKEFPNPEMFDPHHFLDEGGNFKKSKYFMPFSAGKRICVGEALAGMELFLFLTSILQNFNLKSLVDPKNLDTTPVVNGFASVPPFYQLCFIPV
Kindly supply the reported pIC50 values for the records listed here.
Give bare numbers, as −log10 of the molar value.

{"smiles-entry": "CC(C)(C)[C@@H]1Cc2c(nc3c(C(F)(F)F)cc(C4CC4)cn23)-c2[nH]c(=O)c(C(=O)O)cc21", "pIC50": 4.68}

Data request: Provide the documented pIC50 with Cytochrome P450 2C9 (Homo sapiens, UniProt P11712) as the system for COc1cc(OC(F)F)c2nc3c(n2c1)C[C@@H](C(C)(C)C)c1cc(C(=O)O)c(=O)[nH]c1-3
Data returned: 4.66

The reported measurements were obtained from ChEMBL document CHEMBL6127124.
